Cited source: patent US20240270821A1

# assayedSystem: human GcgR (Homo sapiens)
# Sequence (P47871 26-477): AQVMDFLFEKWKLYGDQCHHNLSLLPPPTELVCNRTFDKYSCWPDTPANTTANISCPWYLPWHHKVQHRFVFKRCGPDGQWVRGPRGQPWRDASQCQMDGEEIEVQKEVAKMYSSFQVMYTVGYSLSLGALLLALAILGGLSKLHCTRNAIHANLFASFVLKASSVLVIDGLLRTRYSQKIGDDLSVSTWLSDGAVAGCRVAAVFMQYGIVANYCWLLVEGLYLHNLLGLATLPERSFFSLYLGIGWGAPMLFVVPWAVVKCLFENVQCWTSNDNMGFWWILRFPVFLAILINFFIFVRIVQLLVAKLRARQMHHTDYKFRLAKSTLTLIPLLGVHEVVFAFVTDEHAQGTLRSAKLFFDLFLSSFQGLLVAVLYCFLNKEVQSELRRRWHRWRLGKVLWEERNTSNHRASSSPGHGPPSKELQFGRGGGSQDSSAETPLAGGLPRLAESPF
# assaySummary: Functional cAMP activity in the presence of 1% HSA
# Format: cell-based
# experimentalParameters: read-out: cAMP Rel EC50, hGcgR
Starred links: 1 amine or outer side, 2 acyl side, 3 side chain; linkers in the order of their positions; H or OH if unused. Non-standard residues stand in square brackets, D forms with d. Groups on a side chain read outwards from the residue. No end group written: not given here. *: point of attachment. C20 diacid = O=C(O)CCCCCCCCCCCCCCCCCCC(=O)*; C18 diacid = O=C(O)CCCCCCCCCCCCCCCCC(=O)*; αMePhe(2-F) = C[C@](N)(Cc1ccccc1F)C(=O)O; γGlu = O=C(O)[C@H](CCC(=O)[*:2])N[*:1]; αMe4Pal = C[C@](N)(Cc1ccncc1)C(=O)O; αMeY = C[C@](N)(Cc1ccc(O)cc1)C(=O)O; 4Pal = N[C@@H](Cc1ccncc1)C(=O)O; αMeL = CC(C)C[C@](C)(N)C(=O)O; αMeS = C[C@](N)(CO)C(=O)O; Orn = NCCC[C@H](N)C(=O)O; AEEA = NCCOCCOCC(=O)O; Aib = CC(C)(N)C(=O)O
Entries and their measured EC50 follow.
Quick note: unit goes after the number.

Known results for substances:
substance	assayedSystem	EC50
H-Y[Aib]QGTFTSDFS[Orn][αMeL]LDKK([AEEA-γGlu-C18 diacid])AQ[Aib]AFIEYLLE[Aib]GPSSGAPPPSGE-NH2 [Example 110]	human GcgR (Homo sapiens)	627 nM
H-Y[Aib]QGTFTSD[4Pal]SQ[αMeL]LDKK([γGlu-γGlu-C18 diacid])AQ[αMe4Pal]AFIE[αMe4Pal]LIE[Aib]GPSSGEPPPSGEEE-NH2 [Example 1124]	human GcgR (Homo sapiens)	400 nM
H-Y[Aib]QGT[αMePhe(2-F)]TSD[4Pal][αMeS]I[αMeL]LD[Orn][Orn]([AEEA-γGlu-C18 diacid])AQ[αMe4Pal]EFI[dE][αMeY]LIEGGPSSGAPPPSGGGE-NH2 [Example 1213]	human GcgR (Homo sapiens)	268 nM
H-Y[Aib]QGTFTSDFSK[αMeL]LDKK([AEEA-γGlu-C20 diacid])AQ[Aib]AFIEYLLAGGPSSGAPPPSEG-NH2 [Example 10]	human GcgR (Homo sapiens)	1640 nM
H-Y[Aib]QGTFTSDFS[Orn][αMeL]LDKK([AEEA-γGlu-C18 diacid])AQ[Aib]AFIEWLLEGGTSSGAPPPSGE-NH2 [Example 175]	human GcgR (Homo sapiens)	579 nM

Req: Look up EC50 for this substance: H-Y[Aib]QGTFTSDFS[Orn][αMeL]LDKK([AEEA-γGlu-C18 diacid])AQ[Aib]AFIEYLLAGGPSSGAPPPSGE-NH2 [Example 86]
Resp: 1130 nM

Req: Also Y[Aib]QGTFTSD[4Pal]S[Orn][αMeL]LDKK([γGlu-γGlu-C18 diacid])AQ[Aib]AFIE[αMeY]LLEGGPSSGAPPPSGSEE-NH2 [Example 944] , if possible.
Resp: 1840 nM
